species: Homo sapiens; test: Activity at human P-glycoprotein assessed as ATPase activity using firefly luciferase at 200 uM by Pgp-Glo assay in presence of MgATP
Calls of active or inactive are those of the source. No cut-off for these calls is given here.
Outcome codes: Yes (active), No (inactive)

[[record]]
input_smiles = "CC(C)=CCN1CC[C@]23c4c5ccc(O)c4O[C@H]2C(=O)CC[C@@]3(O)[C@H]1C5"
qualitative_label = "No"

[[record]]
input_smiles = "O=C1CC[C@@]2(O)[C@H]3Cc4ccc(O)c5c4[C@@]2(CCN3CCCc2ccccc2)[C@H]1O5"
qualitative_label = "Yes"

[[record]]
input_smiles = "O=C1CC[C@@]2(O)[C@H]3Cc4ccc(O)c5c4[C@@]2(CCN3Cc2ccccc2)[C@H]1O5"
qualitative_label = "Yes"

[[record]]
input_smiles = "O=C1CC[C@@]2(O)[C@H]3Cc4ccc(O)c5c4[C@@]2(CCN3CCc2ccccc2)[C@H]1O5"
qualitative_label = "Yes"

[[record]]
input_smiles = "O=C1CC[C@@]2(O)[C@H]3Cc4ccc(O)c5c4[C@@]2(CCN3CC2CC2)[C@H]1O5"
qualitative_label = "No"

[[record]]
input_smiles = "CN1CC[C@]23c4c5ccc(O)c4O[C@H]2C(=O)CC[C@@]3(O)[C@H]1C5"
qualitative_label = "No"

[[record]]
input_smiles = "C/C=C/CN1CC[C@]23c4c5ccc(O)c4O[C@H]2C(=O)CC[C@@]3(O)[C@H]1C5"
qualitative_label = "Yes"

[[record]]
input_smiles = "C=CCN1CC[C@]23c4c5ccc(O)c4O[C@H]2C(=O)CC[C@@]3(O)[C@H]1C5"
qualitative_label = "No"

[[record]]
input_smiles = "C=C(C)CN1CC[C@]23c4c5ccc(O)c4O[C@H]2C(=O)CC[C@@]3(O)[C@H]1C5"
qualitative_label = "Yes"

